- Target or test system: human HSL (Homo sapiens, UniProt Q05469)
- Construct: generate a full length human HSL ORF with a 3′-His6 tag
- Sequence (Q05469 1-1076): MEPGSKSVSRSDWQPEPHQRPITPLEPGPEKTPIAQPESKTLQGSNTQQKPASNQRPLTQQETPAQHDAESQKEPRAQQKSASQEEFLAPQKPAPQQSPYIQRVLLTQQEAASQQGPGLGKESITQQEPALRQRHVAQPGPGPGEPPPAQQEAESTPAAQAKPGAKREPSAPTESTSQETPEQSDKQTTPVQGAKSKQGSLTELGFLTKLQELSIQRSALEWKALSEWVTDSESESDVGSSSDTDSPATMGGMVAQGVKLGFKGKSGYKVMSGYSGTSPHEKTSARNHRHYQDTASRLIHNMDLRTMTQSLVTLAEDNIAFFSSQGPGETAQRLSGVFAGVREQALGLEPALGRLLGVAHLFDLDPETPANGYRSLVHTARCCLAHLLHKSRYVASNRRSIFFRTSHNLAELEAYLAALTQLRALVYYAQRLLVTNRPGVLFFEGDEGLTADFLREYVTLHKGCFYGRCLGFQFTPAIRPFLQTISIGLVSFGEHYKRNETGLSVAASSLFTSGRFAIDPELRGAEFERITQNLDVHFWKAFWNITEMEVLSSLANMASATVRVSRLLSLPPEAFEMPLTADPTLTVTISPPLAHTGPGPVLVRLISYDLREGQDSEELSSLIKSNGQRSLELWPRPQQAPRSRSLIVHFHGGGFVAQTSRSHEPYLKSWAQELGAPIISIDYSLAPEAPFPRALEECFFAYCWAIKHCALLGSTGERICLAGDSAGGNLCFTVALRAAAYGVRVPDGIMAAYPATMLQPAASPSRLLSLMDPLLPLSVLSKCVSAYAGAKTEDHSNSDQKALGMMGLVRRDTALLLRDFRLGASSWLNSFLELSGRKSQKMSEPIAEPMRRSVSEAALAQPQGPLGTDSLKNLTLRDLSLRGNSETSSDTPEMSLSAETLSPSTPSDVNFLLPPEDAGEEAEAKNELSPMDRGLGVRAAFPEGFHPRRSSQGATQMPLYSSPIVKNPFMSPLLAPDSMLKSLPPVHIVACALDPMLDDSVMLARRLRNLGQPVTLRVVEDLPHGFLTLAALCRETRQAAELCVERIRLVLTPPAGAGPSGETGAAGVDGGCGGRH
- Test protocol: Human Hormone-Sensitive Lipase (HSL) enzyme inhibition assay (colorimetric, DMPT substrate)
- Condition set: human full length HSL-His6, 2,3-dimercapto-1-propanol tributyrate substrate, 37° C. 20 minutes, absorbance at 405 nm; read-out: HSL hum IC50
- Description: Production of Human Full Length Hormone Sensitive Lipase-His^6: 1) Cloning: cDNA was prepared from commercial human brain polyA+ RNA and used as a template in overlapping PCR to generate a full length human HSL ORF with a 3′-His6 tag. […] The protein concentration was calculated from absorbance at 280 nm, using 280=0.67 cm-1 mg-1. […] HSL enzyme activity was measured by a colorimetric assay using 2,3-dimercapto-1-propanol tributyrate (Aldrich, St. Louis, Mo.) as a substrate. […]
Observation type: IC50 (nM)

Example entries begin here.
Compound	Target or test system	Observation type	Meas value
CC(C)(C)c1ccc(N2CCC3(CCC(C(O)C(F)(F)F)CC3)C2=O)cc1 (single isomer, unassigned) [Example 360]	human HSL (Homo sapiens, UniProt Q05469)	IC50	10
CC(C)(C)COC[C@]1(O)CC[C@]2(CCN(c3ccc(OCC(F)(F)F)cc3)C2=O)CC1 [Example 274]	human HSL (Homo sapiens, UniProt Q05469)	IC50	20
CC(C)OC[C@]1(O)CC[C@]2(CCN(c3ccc(O[C@@H](C)C(F)(F)F)nc3)C2=O)CC1 [Example 309]	human HSL (Homo sapiens, UniProt Q05469)	IC50	10
COC[C@]1(O)CC[C@]2(CCN(c3ccc([C@@H](O)C(F)(F)F)cc3)C2=O)CC1 [Example 138]	human HSL (Homo sapiens, UniProt Q05469)	IC50	100
Cc1cnc(CNC(=O)O[C@H]2CC[C@@]3(CCN(c4ccc(OC(F)(F)F)cc4)C3=O)CC2)cn1 [Example 25]	human HSL (Homo sapiens, UniProt Q05469)	IC50	80

a: CC(C)(C)S(=O)(=O)C[C@]1(O)CC[C@]2(CCN(c3ccc(OCC(F)(F)F)cc3)C2=O)CC1 [Example 322]
b: CCCO[C@H](c1ccc(N2CC[C@]3(CC[C@@](O)(COC)CC3)C2=O)cc1)C(F)(F)F [Example 141]
c: CCOC[C@]1(O)CC[C@@]2(CCN(c3ccc(O[C@@H](C)C(F)(F)F)cc3)C2=O)CC1 [Example 250]
List items by IC50 in falling order. Reply: labels, ordered per the request.
c, b, a
(c: 600 nM, b: 30 nM, a: 20 nM)

A: CC(C)[C@]1(O)CC[C@]2(CCN(c3ccc(OCC(F)(F)F)nc3)C2=O)CC1 [Example 108]
B: CC(C)C(O)[C@H]1CC[C@@]2(CCN(c3ccc(C(C)(C)C)cc3)C2=O)CC1 (some centres unmarked) [Example 355]
When A and B are compared, which has the higher number for IC50? Write down the label of the entry you select.
B

1: C[C@H](Oc1ccc(N2CC[C@]3(CC[C@](O)(COCC(F)(F)F)CC3)C2=O)cc1)C(F)(F)F [Example 282]
2: CC(C)c1ccc(N2CC[C@]3(CC[C@@](O)(C(C)C)CC3)C2=O)cn1 [Example 102]
Among 1 and 2 , whose measured IC50 is the smaller figure? Pick one and reply with its label.
2
(2: 100 nM, 1: 400 nM)

a: CCOC[C@]1(O)CC[C@]2(CCN(c3ccc(C4CC4)cc3)C2=O)CC1 [Example 271]
b: Cc1cc(C[C@]2(O)CC[C@@]3(CCN(c4ccc(OC(C)C)cc4)C3=O)CC2)no1 [Example 221]
In terms of reported IC50, does a or b have the smaller number? Selection: enter the item's label.
a
(a: 30 nM, b: 1160 nM)

A: CCC[C@]1(O)CC[C@]2(CCN(c3ccc(OC(C)C(F)(F)F)cc3)C2=O)CC1 (some centres unmarked) [Example 164]
B: C[C@H](Oc1ccc(N2CC[C@]3(CC[C@@](O)(CS(=O)(=O)C(C)(C)C)CC3)C2=O)cn1)C(F)(F)F [Example 325]
Please tell me which of the two, A or B , has the higher reported IC50 value. Use the label to indicate which entry you chose.
A

1: C=Cc1nnn(C)c1[C@]1(O)CC[C@]2(CCN(c3ccc(OC(C)C)cc3)C2=O)CC1 [Example 222]
2: Cc1cc(C[C@]2(O)CC[C@]3(CCN(c4ccc(OC(C)C)cc4)C3=O)CC2)no1 [Example 220]
// select label with min value of measured IC50 from [ 1 , 2 ] Output the label that corresponds to your choice.
2
(2: 20 nM, 1: 103 nM)

I: C[C@]1(O)CC[C@]2(CCN(c3ccc(OCC(F)(F)F)cc3)C2=O)CC1 [Example 86]
II: CCCOC[C@]1(O)CC[C@]2(CCN(c3ccc(O[C@@H](C)C(F)(F)F)nc3)C2=O)CC1 [Example 268]
# compare IC50 for I vs II ; return the one with the smaller value Selection: enter the item's label.
II
(II: 20 nM, I: 130 nM)

1: CC(C)Oc1ccc(N2CC[C@]3(CC[C@@](O)(c4ccsc4)CC3)C2=O)cc1 [Example 211]
2: O=C1N(c2ccc(OC(F)(F)F)cc2)CC[C@]12CC[C@@](O)(CCO)CC2 [Example 118]
3: CC[C@]1(O)CC[C@@]2(CCN(c3ccc(OC(F)(F)F)cc3)C2=O)CC1 [Example 61]
4: O=C1N(c2ccc(CC(F)(F)F)cc2)CC[C@]12CC[C@](O)(COCC(F)F)CC2 [Example 302]
Order the records so the highest IC50 appears first and the lowest last. # output: labels, in the requested order
3, 4, 2, 1
